// data source = the nanobody polyreactivity screen of Harvey et al. (2022)

test: yeast display, Sf9 membrane polyspecificity reagent, FACS + sequencing; frameworks hold sequencing errors

[
  {
    "sequenceChain": "QVQLVESGGGLVQAGGSLRLSCAASGRIFNTYAMGWYRQAPGKERELVAAITSSGGSTYYADSVKGRFTISRDNAKNTVYFQMNSLKPEDTAVYYCNAGSLHRRYYYEGDYWGQGTQVTVSS",
    "polyreactivity (PSR sort gate)": "high polyreactivity"
  },
  {
    "sequenceChain": "QVQLVESGGVLVQAGGSLRLSCADSGRTFWYYAMGWYRQAPGKEREWVASISASGGSTFYADSVKGRFTISRDNAKNTVSLQMNSLKPEDTAVYYRAAKNAVWRRYEYWGQGTQVTVSS",
    "polyreactivity (PSR sort gate)": "high polyreactivity"
  }
]

====

assay: yeast display, Sf9 membrane polyspecificity reagent, FACS + sequencing; frameworks hold sequencing errors
readoutLabel: polyreactivity (PSR sort gate)

Worked examples, 6 sequences total:
[
  {
    "sequenceChain": "QVQLVESGGGLVQAGGSLRLSCAASGRSFYLYAMGWYRQAPGKERELVASISWNGGSTYYADSVKGRFTISRDNAKNTVYLQMNSLKPEDTAVYYCATDSHRSRLNRPYQLFPAYYYWGQGTQVTVSS",
    "polyreactivity (PSR sort gate)": "low polyreactivity"
  },
  {
    "sequenceChain": "QDQLVESGGGIVQAGGSLRLSCAASGSTIPSYAMGWYRQAPGKERELVASITYSDGTTRYADSVKGRFTISRDNAKNTVCLQMNRLKPVDTAVYYCNAVYDREGMDYWGQGTQVTVSS",
    "polyreactivity (PSR sort gate)": "low polyreactivity"
  },
  {
    "sequenceChain": "QVQLVESGAGLVQAGGILLLSSAASGRIFLFYSLGWSRQEPGKERELVAAISVRGGSTYYADSVKGRITISRDNAKNTVFLQMNSLKPEDTAVYYCNAPNYRSRFDYWGQGTQVTVSS",
    "polyreactivity (PSR sort gate)": "high polyreactivity"
  },
  {
    "sequenceChain": "QVQLVESGGGLVQAGGSLRLSCAASGRIFVLYAMGWYRQAPGKERELVAAISTSGGSTYYADSVKGRFTISRDNAKNTYYLQMNSLKPEDTAVYYCAADRSARFLFIQYYPYGMDYWGQGTQVTVSS",
    "polyreactivity (PSR sort gate)": "high polyreactivity"
  },
  {
    "sequenceChain": "QVQLQERGGGLVQVRGSLRLSCAASGTIIIYGFMGWNRQAPGKERELVASINLGGITNYADSVTGRFTISRDNAKNTVYRQMISLKPEDNAVYYCAAYVVTGQNYGYWCQGTQVTVSS",
    "polyreactivity (PSR sort gate)": "low polyreactivity"
  },
  {
    "sequenceChain": "QDQLVESGGGLVQAGGSLRLSCAASGFIFLPYVMGWYRQAPGKERELVAAISGGGGITYYADSVKGRFTISRDNAKNTVYLQMNSLKPEDTAVYYCAARRQRFGYWGQGTQVTVSS",
    "polyreactivity (PSR sort gate)": "low polyreactivity"
  }
]

Note: attention shifts to another entry.
The value of polyreactivity (PSR sort gate) measured for the sequence QVQLVESGGGLVQAGGSLRLSSAASGSTFRFNAKGWYRQAPGKERELVARISTIGGNTFYADSVKGRFTISRDNAKNTVYLQMNSLKTEDTAVYYCATTGGPSCRKYVYWGQGTQVTVSS turned out to be high polyreactivity
